Where do the numbers come from? From patent US12612409B2.

# Assay Target: CFTR in F508del/F508del primary CF hBE cells (Homo sapiens, UniProt P13569, DEL508-508)
# Construct: Primary cystic fibrosis human bronchial epithelial (CF hBE) cells were expanded and cultured; endogenous in cells; host or cells: primary CF human bronchial epithelial cells, genotype F508del/F508del
# Sequence (P13569 with tags, fused parts or gaps DEL508-508): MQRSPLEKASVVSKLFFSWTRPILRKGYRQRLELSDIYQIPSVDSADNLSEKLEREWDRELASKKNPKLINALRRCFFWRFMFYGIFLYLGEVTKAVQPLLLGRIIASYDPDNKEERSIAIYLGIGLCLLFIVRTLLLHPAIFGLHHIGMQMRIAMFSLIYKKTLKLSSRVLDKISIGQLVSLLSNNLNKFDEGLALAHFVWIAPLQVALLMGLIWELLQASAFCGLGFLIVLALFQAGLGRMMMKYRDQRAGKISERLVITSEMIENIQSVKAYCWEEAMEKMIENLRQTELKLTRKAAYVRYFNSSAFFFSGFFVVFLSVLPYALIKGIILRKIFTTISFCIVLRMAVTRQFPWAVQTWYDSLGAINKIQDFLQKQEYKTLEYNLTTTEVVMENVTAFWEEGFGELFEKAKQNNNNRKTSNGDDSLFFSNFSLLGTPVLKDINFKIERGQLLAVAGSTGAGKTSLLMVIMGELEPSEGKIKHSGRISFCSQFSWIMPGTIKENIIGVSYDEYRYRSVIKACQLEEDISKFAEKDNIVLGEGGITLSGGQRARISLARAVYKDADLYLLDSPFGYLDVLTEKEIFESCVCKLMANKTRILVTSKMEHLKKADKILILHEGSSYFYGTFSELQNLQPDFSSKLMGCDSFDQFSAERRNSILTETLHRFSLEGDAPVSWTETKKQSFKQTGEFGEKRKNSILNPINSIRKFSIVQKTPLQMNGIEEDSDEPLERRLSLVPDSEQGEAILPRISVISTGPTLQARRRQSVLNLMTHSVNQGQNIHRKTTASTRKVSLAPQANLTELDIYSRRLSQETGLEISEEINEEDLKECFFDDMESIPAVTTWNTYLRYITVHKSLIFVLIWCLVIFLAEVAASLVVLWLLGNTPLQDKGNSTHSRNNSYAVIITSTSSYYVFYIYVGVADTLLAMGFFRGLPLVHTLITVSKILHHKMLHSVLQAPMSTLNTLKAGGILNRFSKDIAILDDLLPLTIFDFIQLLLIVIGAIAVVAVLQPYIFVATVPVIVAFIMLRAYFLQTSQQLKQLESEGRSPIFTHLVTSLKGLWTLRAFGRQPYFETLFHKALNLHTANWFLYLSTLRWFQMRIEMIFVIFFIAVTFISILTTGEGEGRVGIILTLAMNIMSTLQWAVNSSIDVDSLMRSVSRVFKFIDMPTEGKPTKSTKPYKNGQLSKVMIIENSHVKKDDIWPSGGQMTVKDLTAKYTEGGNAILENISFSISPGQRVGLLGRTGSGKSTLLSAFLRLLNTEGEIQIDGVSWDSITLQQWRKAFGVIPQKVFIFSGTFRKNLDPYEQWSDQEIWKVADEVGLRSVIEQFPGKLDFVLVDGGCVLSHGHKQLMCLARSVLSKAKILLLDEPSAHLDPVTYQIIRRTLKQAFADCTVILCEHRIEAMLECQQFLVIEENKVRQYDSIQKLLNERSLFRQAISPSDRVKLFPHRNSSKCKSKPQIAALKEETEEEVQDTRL
# Assay Details: Ussing chamber electrophysiology assay of CFTR potentiation in F508del/F508del CF bronchial epithelial cells (27° C.)
# Type: cell-based
pEC50: −log10 of the molar value.
Readout Name: pEC50

Examples from the recorded data:
{"Compound": "CCC(c1cn(-c2ccccc2F)nn1)n1cc(-c2cc[nH]n2)c2c(N)ncnc21 (single isomer, unassigned; enantiomer 2)", "pEC50": 7.59}
{"Compound": "CC(c1cn(-c2ccccc2F)nn1)n1cc(-c2ccc(OC3CC3)cc2)c2c(N)ncnc21 (single isomer, unassigned; enantiomer 1) [Example 117]", "pEC50": 7.31}
{"Compound": "CC(C)n1cc(Cn2cc(-c3ccc(Cl)cc3)c3c(N)ncnc32)cn1", "pEC50": 6.85}
{"Compound": "CCC(c1cn(-c2ccccc2F)nn1)n1cc(-c2cnc(C(F)(F)F)nc2)c2c(N)ncnc21 (single isomer, unassigned; enantiomer 2) [Example 138]", "pEC50": 6.58}
{"Compound": "CC(c1cnn(-c2ccccc2F)c1)n1c(C#N)c(-c2cnc(C(F)F)nc2)c2c(N)ncnc21 (single isomer, unassigned) [Example 1]", "pEC50": 8.78}
{"Compound": "CC(c1cn(-c2ccccc2F)nn1)n1cc(-c2cc[nH]n2)c2c(N)ncnc21 (single isomer, unassigned; enantiomer 1)", "pEC50": 7.05}

A = CC(c1cn(-c2ncccc2F)nn1)n1cc(-c2ccc(OC3CC3)cc2)c2c(N)ncnc21 (stereo not shown)
B = CC(c1cn(-c2ccccc2F)nn1)n1cc(C2CC2)c2c(N)ncnc21 (single isomer, unassigned) [Example 109]
Q) Could you check which of A and B has a smaller value for pEC50? Bench note: the answer is the label of the chosen record.
A) B

* * *

# Assay Target: CFTR in F508del/F508del primary CF hBE cells (Homo sapiens, UniProt P13569, DEL508-508)
# Construct: Primary cystic fibrosis human bronchial epithelial (CF hBE) cells were expanded and cultured; endogenous in cells
# Assay Details: Ussing chamber electrophysiology assay of CFTR potentiation in F508del/F508del CF bronchial epithelial cells (27° C.)
# Text: • SHELXTL, Version 5.1, Bruker AXS, 1997. • PLATON, A. L. Spek, J. Appl. Cryst. 2003, 36, 7-13. • MERCURY, C. F. Macrae, P. R. Edington, P. McCabe, E. Pidcock, G. P. Shields, R. Taylor, M. Towler and J. van de Streek, J. Appl. Cryst. 39, 453-457, 2006. • OLEX2, Dolomanov, O. V.; Bourhis, L. J.; Gildea, R. J.; Howard, J. A. K.; Puschmann, H., (2009). J. Appl. Cryst., 42, 339-341. • R. W. W. Hooft et al. J. Appl. Cryst. (2008). 41. 96-103. • H. D. Flack, Acta Cryst. 1983, A39, 867-881. […]
Readout Name: EC50 (nM)

P = N#Cc1ccc(-c2cn(Cc3cnc(-c4ccccc4F)[nH]3)c3ncnc(N)c23)cc1F
Q = CCC(c1cn(-c2ccccc2)nn1)n1cc(-c2cncnc2OC)c2c(N)ncnc21 (stereo not shown) [Example 248]
R = COc1ncncc1-c1cn(C(c2cn(-c3ccccc3F)nn2)C2CC2)c2ncnc(N)c12 (single isomer, unassigned; enantiomer 2) [Example 300]
S = COc1ncccc1-c1cn(Cc2cn(-c3ccccc3F)nn2)c2nc(C)nc(N)c12
Q) I would appreciate it if you could sort these 4 compounds by EC50, starting from the smallest number. # the answer lists labels in the order requested
A) Q, P, R, S

* * *

# Assay Target: recombinant F508del V470 CFTR in Fischer rat thyroid (FRT) cells (Homo sapiens, UniProt P13569, DEL508-508)
# Assay Details: FRT ion flux assay of F508del CFTR potentiation
# Settings: FRT cells expressing F508del V470 CFTR, forskolin 20 uM, 27° C. pre-incubation
pEC50: −log10 of the molar value.
Readout Name: pEC50

Examples from the recorded data:
{"Compound": "COc1ccc(-c2cn(C(C)c3cnc(-c4ccccc4F)[nH]3)c3ncnc(N)c23)c(F)c1 (stereo not shown)", "pEC50": 6.71}
{"Compound": "CC(c1cnc(-c2ccccc2F)[nH]1)n1cc(-c2cnc(N(C)C)nc2)c2c(N)ncnc21 (stereo not shown)", "pEC50": 7.26}
{"Compound": "CC(c1cn(-c2ccccc2F)nn1)n1cc(-c2ccc(Cl)cc2)c2c(N)ncnc21 (stereo not shown) [Example 58]", "pEC50": 6.63}

1 = COc1ncccc1-c1cn(C2(c3cn(-c4ccccc4F)nn3)CC2)c2ncnc(N)c12
2 = COc1ncccc1-c1cn(Cc2ccn(-c3ccccc3F)n2)c2ncnc(N)c12
3 = CCC(c1cn(-c2ccccc2)nn1)n1cc(-c2ccc(OC)nc2)c2c(N)ncnc21 (single isomer, unassigned; enantiomer 2) [Example 126]
4 = CCC(c1cn(-c2ccc(F)cc2F)nn1)n1c(C#N)c(-c2cnc(C(F)(F)F)nc2)c2c(N)ncnc21 (single isomer, unassigned) [Example 16]
Q) Order the 4 compounds from highest to lowest pEC50. # the answer lists labels in the order requested
A) 4, 3, 1, 2
(4: 8.19, 3: 7.67, 1: 6.74, 2: 6.33)

* * *

# Assay Target: CFTR in F508del/F508del primary CF hBE cells (Homo sapiens, UniProt P13569, DEL508-508)
# Construct: Primary cystic fibrosis human bronchial epithelial (CF hBE) cells were expanded and cultured; endogenous in cells; host or cells: primary CF human bronchial epithelial cells, genotype F508del/F508del
# Assay Details: Ussing chamber electrophysiology assay of CFTR potentiation in F508del/F508del CF bronchial epithelial cells (27° C.)
# Assay type: cell-based
pEC50: −log10 of the molar value.
Readout Name: pEC50

1 = Cn1ncc2cc(-c3cn(Cc4cn(-c5ccccc5F)nn4)c4ncnc(N)c34)ccc21
2 = CC(c1cnn(-c2ccc(F)cc2F)c1)n1c(C#N)c(-c2cnc(C(F)(F)F)nc2)c2c(N)ncnc21 (single isomer, unassigned) [Example 7]
3 = CCC(c1cnn(-c2ccccc2F)c1)n1c(C#N)c(-c2cnc(C(F)(F)F)nc2)c2c(N)ncnc21 (single isomer, unassigned) [Example 3]
Q) I would appreciate it if you could sort these 3 compounds by pEC50, starting from the smallest number. # the answer lists labels in the order requested
A) 1, 3, 2

* * *

# Assay Target: CFTR in F508del/F508del primary CF hBE cells (Homo sapiens, UniProt P13569, DEL508-508)
# Construct: Primary cystic fibrosis human bronchial epithelial (CF hBE) cells were expanded and cultured; endogenous in cells; host or cells: primary CF human bronchial epithelial cells, genotype F508del/F508del
# Assay Details: Ussing chamber electrophysiology assay of CFTR potentiation in F508del/F508del CF bronchial epithelial cells (27° C.)
# Format: cell-based
Readout Name: EC50 (nM)

Examples from the recorded data:
{"Molecule": "CCC(c1cn(-c2ccccc2F)nn1)n1cc(-c2ccc(OC(F)F)nc2)c2c(N)ncnc21 (single isomer, unassigned; enantiomer 1) [Example 141]", "Unit Descriptor": "nM", "EC50": 133}
{"Molecule": "CCC(c1cn(-c2ccc(F)c(F)c2)nn1)n1cc(-c2cnc(C(F)F)nc2)c2c(N)ncnc21 (single isomer, unassigned; enantiomer 2)", "Unit Descriptor": "nM", "EC50": 131}
{"Molecule": "Nc1ncnc2c1c(-c1ccc(OC(F)F)cc1)cn2Cc1cn(-c2ccccc2F)nn1", "Unit Descriptor": "nM", "EC50": 39.8}
{"Molecule": "CCC(c1cn(-c2cc(F)ccc2F)nn1)n1cc(-c2cc(F)cnc2OC)c2c(N)ncnc21 (single isomer, unassigned; enantiomer 1) [Example 171]", "Unit Descriptor": "nM", "EC50": 3.87}
{"Molecule": "CCC(c1cn(-c2ccccc2F)nn1)n1cc(-c2nccnc2OC)c2c(N)ncnc21 (single isomer, unassigned; enantiomer 1) [Example 135]", "Unit Descriptor": "nM", "EC50": 65.2}

1 = COc1nc(C(F)(F)F)ncc1-c1cn(C(C)c2cn(-c3ccccc3F)nn2)c2ncnc(N)c12 (centres unmarked)
2 = N#Cc1c(-c2cnc(C(F)(F)F)nc2)c2c(N)ncnc2n1Cc1cn(-c2ccccc2F)nn1
Q) Which is greater in EC50, the first item 1 or the second item 2 ? Bench note: the answer is the label of the chosen record.
A) 1

* * *

# Assay Target: CFTR in F508del/F508del primary CF hBE cells (Homo sapiens, UniProt P13569, DEL508-508)
# Construct: Primary cystic fibrosis human bronchial epithelial (CF hBE) cells were expanded and cultured; endogenous in cells
# Assay Details: Ussing chamber electrophysiology assay of CFTR potentiation in F508del/F508del CF bronchial epithelial cells (27° C.)
pEC50: −log10 of the molar value.
Readout Name: pEC50

Examples from the recorded data:
{"Compound": "CNc1ncnc2c1c(-c1ccc(Cl)cc1)cn2C(C)c1cn(-c2ccccc2F)nn1 (stereo not shown)", "pEC50": 6.40}
{"Compound": "CCC(c1cn(-c2cccc(F)c2F)nn1)n1cc(-c2cncnc2OC)c2c(N)ncnc21 (single isomer, unassigned; enantiomer 2) [Example 306]", "pEC50": 7.58}

1 = CCC(c1cn(-c2ccccc2F)nn1)n1cc(-c2cc(F)cnc2OC)c2c(N)ncnc21 (stereo not shown) [Example 223]
2 = CC(c1cn(-c2ccccc2F)nn1)n1cc(-c2ccc(Cl)cc2)c2c(N)ncnc21 (single isomer, unassigned) [Example 112]
3 = CC(C)c1cc(Cn2cc(-c3ccc(Cl)cc3)c3c(N)ncnc32)on1
4 = CC(c1cn(-c2ccccc2F)nn1)n1cc(-c2cc(F)cc(Cl)c2)c2c(N)ncnc21 (stereo not shown)
5 = CC(c1cn(-c2ccccc2F)nn1)n1cc(-c2ccc(OC3CC3)nc2)c2c(N)ncnc21 (single isomer, unassigned; enantiomer 1) [Example 119]
Q) Order the 5 compounds from highest to lowest pEC50. # the answer lists labels in the order requested
A) 1, 2, 4, 3, 5
(1: 8.14, 2: 7.76, 4: 7.44, 3: 6.95, 5: 6.73)
